biological target: T1, human CD4 on human PBMCs (human, UniProt P01730 26-458); assay: FACS, clonal hybridoma supernatant on PBMCs
T1 construct: whole, on cells; also called hCD4
measured.property: % CD4 Stain

75110_09G15A (antibody, V domains shown) VH: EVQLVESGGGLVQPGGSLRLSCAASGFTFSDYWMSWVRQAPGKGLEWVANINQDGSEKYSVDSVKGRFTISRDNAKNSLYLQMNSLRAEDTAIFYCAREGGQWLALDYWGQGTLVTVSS VL: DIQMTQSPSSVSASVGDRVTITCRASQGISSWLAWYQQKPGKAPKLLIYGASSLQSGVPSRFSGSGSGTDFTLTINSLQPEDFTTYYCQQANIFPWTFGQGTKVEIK; 37.3%
75110_08D24A (antibody, V domains shown) VH: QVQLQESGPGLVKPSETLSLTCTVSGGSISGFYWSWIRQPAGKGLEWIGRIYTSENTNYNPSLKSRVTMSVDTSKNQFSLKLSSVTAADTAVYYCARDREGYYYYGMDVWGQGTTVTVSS VL: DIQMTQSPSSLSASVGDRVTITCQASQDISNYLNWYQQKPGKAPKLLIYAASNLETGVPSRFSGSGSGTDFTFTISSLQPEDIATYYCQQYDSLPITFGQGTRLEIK; 33.6%
75110_06E14A (antibody, V domains shown) VH: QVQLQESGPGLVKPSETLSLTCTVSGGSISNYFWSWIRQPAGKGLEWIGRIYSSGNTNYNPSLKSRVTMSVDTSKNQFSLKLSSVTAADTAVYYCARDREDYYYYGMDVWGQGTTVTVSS VL: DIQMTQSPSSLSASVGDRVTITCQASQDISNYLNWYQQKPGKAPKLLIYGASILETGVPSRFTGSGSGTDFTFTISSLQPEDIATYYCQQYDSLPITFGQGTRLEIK; 31.7%

Name the recorded % CD4 Stain of the item 75110_08A13A (antibody, V domains shown) VH: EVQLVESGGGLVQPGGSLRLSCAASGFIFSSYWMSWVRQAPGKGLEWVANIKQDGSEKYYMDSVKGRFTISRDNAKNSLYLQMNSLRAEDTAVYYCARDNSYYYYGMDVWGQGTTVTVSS VL: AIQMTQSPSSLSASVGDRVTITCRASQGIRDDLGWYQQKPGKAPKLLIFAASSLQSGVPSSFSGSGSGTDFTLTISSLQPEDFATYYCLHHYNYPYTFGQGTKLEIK in your answer. 30.3%

Name the recorded % CD4 Stain of the item 75110_06K03A (antibody, V domains shown) VH: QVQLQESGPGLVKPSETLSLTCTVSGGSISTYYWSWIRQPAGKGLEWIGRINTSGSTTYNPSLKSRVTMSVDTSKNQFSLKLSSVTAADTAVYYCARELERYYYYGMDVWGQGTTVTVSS VL: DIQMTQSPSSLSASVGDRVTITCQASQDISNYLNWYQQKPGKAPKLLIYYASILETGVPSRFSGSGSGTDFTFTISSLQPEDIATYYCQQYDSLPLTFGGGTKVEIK in your answer. 34%

Name the recorded % CD4 Stain of the item 75110_07J02A (antibody, V domains shown) VH: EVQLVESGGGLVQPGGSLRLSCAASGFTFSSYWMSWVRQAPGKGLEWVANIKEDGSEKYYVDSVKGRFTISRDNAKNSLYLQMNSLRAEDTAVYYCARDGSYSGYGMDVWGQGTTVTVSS VL: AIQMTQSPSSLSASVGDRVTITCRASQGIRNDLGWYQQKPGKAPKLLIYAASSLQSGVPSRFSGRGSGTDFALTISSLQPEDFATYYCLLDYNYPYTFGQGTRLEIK in your answer. 33.4%
